Molecular target: PTPN2 (Homo sapiens, UniProt P17706)
Construct: expressed in transfected cells; host or cells: 293T.109 (HiBiT-PTPN2), derived from 293T WT (ATCC)
Sequence (P17706 1-415): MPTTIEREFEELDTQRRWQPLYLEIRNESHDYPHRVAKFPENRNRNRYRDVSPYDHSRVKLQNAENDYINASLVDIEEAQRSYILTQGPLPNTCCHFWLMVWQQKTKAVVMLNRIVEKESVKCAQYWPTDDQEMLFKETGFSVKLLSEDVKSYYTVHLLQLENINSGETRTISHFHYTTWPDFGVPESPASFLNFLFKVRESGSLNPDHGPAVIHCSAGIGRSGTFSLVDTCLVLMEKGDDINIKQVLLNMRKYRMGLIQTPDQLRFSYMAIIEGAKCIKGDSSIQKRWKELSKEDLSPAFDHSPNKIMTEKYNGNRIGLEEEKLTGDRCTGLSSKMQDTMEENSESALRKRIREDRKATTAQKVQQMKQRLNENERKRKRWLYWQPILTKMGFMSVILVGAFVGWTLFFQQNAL
Assay: HiBiT PTPN2 degradation in 293T.109 (HiBiT-PTPN2) cells, 24 hours
Assay type: cell-based
Settings: 293T.109 cells
Overview of recorded DC50 for various compounds

Solved cases below.
Cc1nn(C2CCC(=O)NC2=O)c2ccc(C3CCN(CC(=O)Nc4ccc5c(F)c(N6CC(=O)NS6(=O)=O)c(O)cc5c4)CC3)cc12 (centres unmarked)
< 50 nM
Cn1c(=O)n(C2CCC(=O)NC2=O)c2ccc([C@@H]3CCN(CC(=O)Nc4ccc5c(F)c(N6CC(=O)NS6(=O)=O)c(O)cc5c4)C[C@H]3O)cc21 (some centres unmarked)
< 50 nM
CCn1c(=O)n(C2CCC(=O)NC2=O)c2ccc([C@H]3CCN(CC(=O)Nc4ccc5c(F)c(N6CC(=O)NS6(=O)=O)c(O)cc5c4)C[C@@H]3F)cc21 (single isomer, unassigned)
150 to 500 nM

Short answer for Cc1cc(C(C)C(=O)Nc2ccc3c(F)c(N4CC(=O)NS4(=O)=O)c(O)cc3c2)ccc1Nc1ccc2c(c1)n(C)c(=O)n2C1CCC(=O)NC1=O (centres unmarked) : DC50 was 150 to 500 nM

Short answer for Cn1nc(N2CCC(=O)NC2=O)c2cc(F)c(N3CCC(CC(=O)Nc4ccc5c(F)c(N6CC(=O)NS6(=O)=O)c(O)cc5c4)CC3)cc21 [Degrader 129] : DC50 was 50 to 150 nM

Short answer for Cn1c(=O)n(C2CCC(=O)NC2=O)c2ccc(-c3ccc([C@H](CO)C(=O)Nc4ccc5c(F)c(N6CC(=O)NS6(=O)=O)c(O)cc5c4)cc3)cc21 (some centres unmarked) : DC50 was 150 to 500 nM

---

Target: PTPN2 (Homo sapiens)
Construct: expressed in transfected cells; host or cells: 293T.109 (HiBiT-PTPN2), derived from 293T WT (ATCC)
Test: HiBiT PTPN2 degradation in 293T.109 (HiBiT-PTPN2) cells, 24 hours
Type: cell-based
Settings: 293T.109 cells
readout type: DC50

Solved cases below.
Cn1c(=O)n(C2CCC(=O)NC2=O)c2ccc(Oc3ccc(CC(=O)Nc4ccc5c(F)c(N6CC(=O)NS6(=O)=O)c(O)cc5c4)cc3)cc21 (stereo not drawn)
50 to 150 nM
Cn1c(=O)n(C2CCC(=O)NC2=O)c2ccc(N3CCC4(CC3)CN(CC(=O)Nc3ccc5c(F)c(N6CC(=O)NS6(=O)=O)c(O)cc5c3)C4)cc21 (stereo not drawn)
50 to 150 nM
Cn1c(=O)n(C2CCC(=O)NC2=O)c2ccc(-c3ccc(CC(=O)Nc4ccc5c(F)c(N6CC(=O)NS6(=O)=O)c(O)cc5c4)cc3)c(F)c21 (stereo not drawn)
150 to 500 nM
C[C@@H](C(=O)Nc1ccc2c(F)c(N3CC(=O)NS3(=O)=O)c(O)cc2c1)C1CCN(c2ccc3c(c2)n(C)c(=O)n3C2CCC(=O)NC2=O)CC1 (stereo partly drawn)
150 to 500 nM

Short answer for Cn1c(=O)n(C2CCC(=O)NC2=O)c2ccc(N3CCC(CCC(=O)Nc4ccc5c(F)c(N6CC(=O)NS6(=O)=O)c(O)cc5c4)CC3)cc21 (stereo not drawn) : DC50 was 50 to 150 nM

Short answer for Cn1c(=O)n(C2CCC(=O)NC2=O)c2ccc(Nc3cnn(CC(=O)Nc4ccc5c(F)c(N6CC(=O)NS6(=O)=O)c(O)cc5c4)c3)cc21 (stereo not drawn) : DC50 was 50 to 150 nM
